Recorded % of SP34, one value per entry.
Target: human CD3 on cells (human PBMC; Jurkat TCR/CD3 NFAT reporter cells) (human, UniProt P07766 23-207; P04234 22-171; P09693 23-182)
Sequence (P07766 23-207, chain 1 of 3): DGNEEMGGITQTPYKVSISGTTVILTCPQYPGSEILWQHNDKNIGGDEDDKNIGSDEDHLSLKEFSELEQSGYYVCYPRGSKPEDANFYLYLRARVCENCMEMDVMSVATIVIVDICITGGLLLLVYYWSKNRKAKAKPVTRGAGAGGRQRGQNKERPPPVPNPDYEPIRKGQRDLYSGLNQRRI
Sequence (P04234 22-171, chain 2 of 3): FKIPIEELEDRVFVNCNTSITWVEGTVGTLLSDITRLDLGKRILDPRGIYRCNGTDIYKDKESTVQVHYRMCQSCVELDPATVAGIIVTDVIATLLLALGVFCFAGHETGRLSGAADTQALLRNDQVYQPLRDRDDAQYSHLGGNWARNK
Sequence (P09693 23-182, chain 3 of 3): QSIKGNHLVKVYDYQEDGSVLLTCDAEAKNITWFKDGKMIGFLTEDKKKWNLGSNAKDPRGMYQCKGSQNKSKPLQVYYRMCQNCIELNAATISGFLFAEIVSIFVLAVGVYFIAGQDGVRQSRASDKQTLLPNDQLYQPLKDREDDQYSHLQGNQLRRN
Assay: cell-based or functional assay

Answered cases to consult:
# Binder, Reported Result
records = [
    ("Hu155A9B1-12 (antibody, V domains shown, humanized mAb) VH: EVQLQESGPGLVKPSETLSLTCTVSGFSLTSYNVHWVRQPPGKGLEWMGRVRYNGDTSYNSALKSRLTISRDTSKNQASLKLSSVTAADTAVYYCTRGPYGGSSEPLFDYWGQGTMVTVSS VL: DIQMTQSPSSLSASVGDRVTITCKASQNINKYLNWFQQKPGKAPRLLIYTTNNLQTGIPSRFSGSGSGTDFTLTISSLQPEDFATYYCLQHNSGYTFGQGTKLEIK", "72.4%"),
    ("Hu153A6B1-10 (antibody, V domains shown, humanized mAb) VH: EVQLQESGPGLVKPSETLSLTCTVSGGSISSYNIHWVRQPPGKGLEWMGRIRYNGDTSYNSALKSRLTISRDTSKNQFSLKLSSVTAADTAVYYCTRGPYGGSREPLFDYWGQGTMVTVSS VL: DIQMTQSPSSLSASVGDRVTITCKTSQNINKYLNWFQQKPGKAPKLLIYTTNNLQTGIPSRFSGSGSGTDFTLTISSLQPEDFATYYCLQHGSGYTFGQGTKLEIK", "73.9%"),
]

Please give the measured % of SP34 for this binder: Hu155A9B1-7 (antibody, V domains shown, humanized mAb) VH: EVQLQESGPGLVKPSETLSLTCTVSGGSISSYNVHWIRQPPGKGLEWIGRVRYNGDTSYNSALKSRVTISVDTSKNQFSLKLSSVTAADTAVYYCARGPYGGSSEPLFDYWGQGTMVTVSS VL: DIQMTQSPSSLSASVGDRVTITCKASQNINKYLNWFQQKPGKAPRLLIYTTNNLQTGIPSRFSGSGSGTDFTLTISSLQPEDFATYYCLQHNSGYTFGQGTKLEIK
22.6%
